Molecular target: Spindlin1 (Homo sapiens, UniProt Q9Y657)
Sequence (Q9Y657 whole entry, species assumed): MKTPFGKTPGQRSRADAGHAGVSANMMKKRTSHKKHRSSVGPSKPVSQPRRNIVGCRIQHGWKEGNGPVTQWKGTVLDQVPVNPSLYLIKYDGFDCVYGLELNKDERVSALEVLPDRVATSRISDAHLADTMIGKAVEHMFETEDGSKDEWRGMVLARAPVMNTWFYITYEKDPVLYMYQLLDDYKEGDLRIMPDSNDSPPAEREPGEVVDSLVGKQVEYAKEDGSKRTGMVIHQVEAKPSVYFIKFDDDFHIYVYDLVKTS
OUTCOME_MEASURE: IC50 (nM)

- SMILES_TEXT: "COc1cc2c(NC3CCN(C(C)C)CC3)nc(N3CCC(F)(F)CC3)nc2cc1OCCCN1CCCC1"
  SYSTEM_NAME: "Spindlin1 (Homo sapiens, UniProt Q9Y657)"
  OUTPUT_UNIT: "nM"
  EXPERIMENTAL_RESULT: 2700

----------
Biological target: human isoform of histamine H3 receptor (hH3R) (Homo sapiens)
Construct: expressed in transfected cells; host or cells: HEK-293T
Sequence (Q9Y5N1 whole entry, canonical isoform): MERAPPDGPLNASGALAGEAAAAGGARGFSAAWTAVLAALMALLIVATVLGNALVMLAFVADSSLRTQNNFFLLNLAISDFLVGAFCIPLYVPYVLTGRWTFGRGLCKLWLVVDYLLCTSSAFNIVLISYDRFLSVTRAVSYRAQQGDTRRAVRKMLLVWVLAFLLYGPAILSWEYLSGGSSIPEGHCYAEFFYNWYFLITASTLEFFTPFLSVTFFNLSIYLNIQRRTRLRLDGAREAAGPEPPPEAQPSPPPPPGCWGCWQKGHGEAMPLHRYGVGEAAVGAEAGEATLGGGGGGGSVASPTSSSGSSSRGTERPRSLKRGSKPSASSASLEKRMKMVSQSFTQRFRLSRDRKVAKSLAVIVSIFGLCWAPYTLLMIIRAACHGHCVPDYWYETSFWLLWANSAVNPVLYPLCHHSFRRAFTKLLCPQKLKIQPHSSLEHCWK
Assay: [3H]Nα-methylhistamine displacement at hH3R, membranes of transfected HEK-293T cells
Type: binding
pKi: −log10 of the molar value.

- SMILES_TEXT: "COc1cc2c(NC3CCN(C(C)C)CC3)nc(N3CCC(F)(F)CC3)nc2cc1OCCCN1CCCC1"
  SYSTEM_NAME: "human isoform of histamine H3 receptor (hH3R) (Homo sapiens)"
  pKi: 8.74
